All values here come from ChEMBL document CHEMBL5058577.

test system: HEK-293T; experiment: Multiplex assay against HEK293T; assay type: toxicity, cell-based; conditions: human, 48 h, 10 µM, compound concentration 10 uM, replicate 1
Please provide measured Population Fragmented Nuclei (%) for the entries that follow.
Answer format: numeric, % implied, no suffix.

Q: Bench note: what Population Fragmented Nuclei (%) did CCn1c(-c2nc3cc(C(=O)N4CCCC(N)C4)ccc3n2C)cc2ccccc21.Cl (centres undefined) show?
Result: 14

Q: Bench note: what Population Fragmented Nuclei (%) did Cc1nn(C)c2nc(NNC(=O)Nc3cc(Cl)nc(Cl)c3)cc(C(C)C)c12 show?
Result: 9

Q: Bench note: what Population Fragmented Nuclei (%) did Cc1cc(=O)n(C)c2cc(N3C(=O)CC[C@H](NS(=O)(=O)CC(C)C)[C@H]3c3ccc(Cl)cc3)ccc12 show?
Result: 12

Q: Bench note: what Population Fragmented Nuclei (%) did COc1cc(C(=O)N2CC[C@@H](O)[C@@H](N)C2)cc2nc(-c3cc4ccccc4n3CC3CC3)n(C)c12.Cl show?
Result: 13

====

tested on: HEK-293T; test: Multiplex assay against HEK293T; type: toxicity, cell-based; settings: human, 48 h, 1 µM, compound concentration 1 uM, replicate 2
Please provide measured Total Cell Count for the entries that follow.

Q: Bench note: what Total Cell Count did O=C(Nc1cc(-c2ccccc2)nn1-c1ccccc1F)c1ccc([N+](=O)[O-])cc1 show?
Result: 799

Q: Bench note: what Total Cell Count did Cc1cc(-c2ccc3c(c2)CC[C@H]3N2CC3(CCN(C(=O)Cc4cn5cc(C)sc5n4)CC3)C2)ncn1 [PF-5190457] show?
Result: 531

Q: Bench note: what Total Cell Count did Cl.Cl.OCCOCCN1CCN(C(c2ccccc2)c2ccc(Cl)cc2)CC1 (stereo not drawn) [HYDROXYZINE HYDROCHLORIDE] show?
Result: 676

====

test system: Fibroblast; experiment: Multiplex assay against human fibroblast; assay type: toxicity, cell-based; settings: 12 h, 10 µM, compound concentration 10 uM, replicate 1
Please provide measured Population Healthy Nuclei (%) for the entries that follow.
Report as: number unit

Q: Record COc1cc(OC2CCN(C(C)=O)CC2)ccc1C(=O)N1CCC(N2C(=O)OCc3ccccc32)CC1 : what is its Population Healthy Nuclei (%) with Fibroblast?
Result: 73%

Q: Record COc1ccc2[nH]c(I)c(CCNC(C)=O)c2c1 : what is its Population Healthy Nuclei (%) with Fibroblast?
Result: 64%

Q: Record Nc1nc(-c2ccco2)c2cnn(Cc3ccccc3F)c2n1 : what is its Population Healthy Nuclei (%) with Fibroblast?
Result: 61%

Q: Record CCCCC[C@H](O)/C=C/[C@H]1[C@H](O)CC(=O)[C@@H]1CCCCCCC(=O)O : what is its Population Healthy Nuclei (%) with Fibroblast?
Result: 75%

Q: Record CN1CCN2c3ccccc3Cc3ccccc3C2C1.Cl (stereo not drawn) [MIANSERIN HYDROCHLORIDE] : what is its Population Healthy Nuclei (%) with Fibroblast?
Result: 68%

Q: Record Cc1nn(C)c2nc(NNC(=O)Nc3cc(Cl)nc(Cl)c3)cc(C(C)C)c12 : what is its Population Healthy Nuclei (%) with Fibroblast?
Result: 63%

Q: Record S=C(NCCCc1c[nH]cn1)NCCCN(Cc1ccc(Cl)c(Cl)c1)c1ccc(Br)cn1 : what is its Population Healthy Nuclei (%) with Fibroblast?
Result: 56%

Q: Record Cc1ccc(OCC(O)C(C)NC(C)C)c2c1CCC2.Cl (stereo not drawn) : what is its Population Healthy Nuclei (%) with Fibroblast?
Result: 47%

Q: Record C[C@H](NC(=O)CNC(=O)c1cccc(Cl)c1)c1ccccc1 : what is its Population Healthy Nuclei (%) with Fibroblast?
Result: 58%

Q: Record O=C(NCCNCC(O)COc1ccc(O)cc1)N1CCOCC1.O=C(NCCNCC(O)COc1ccc(O)cc1)N1CCOCC1.O=C(O)/C=C/C(=O)O (stereo not drawn) [XAMOTEROL FUMARATE] : what is its Population Healthy Nuclei (%) with Fibroblast?
Result: 64%

Q: Record COc1cc2nc(N3CCN(C(=O)c4ccco4)CC3)nc(N)c2cc1OC.Cl [PRAZOSIN HYDROCHLORIDE] : what is its Population Healthy Nuclei (%) with Fibroblast?
Result: 64%

Q: Record COc1ccc2c(c1OCc1ccccc1)C[C@@H](C(=O)O)N(C(=O)C(c1ccccc1)c1ccccc1)C2 : what is its Population Healthy Nuclei (%) with Fibroblast?
Result: 65%

Q: Record Cc1cc(O)c(-c2ccc([C@@H](C)CN(C)C)cc2)c2c1[nH]c(=O)c1sccc12 : what is its Population Healthy Nuclei (%) with Fibroblast?
Result: 63%

Q: Record C[C@@H]1CC(=O)Nc2cccc(-c3ccc4c(c3)c(-c3cnn(C)c3)nn4C)c2N1 : what is its Population Healthy Nuclei (%) with Fibroblast?
Result: 65%

Q: Record O=c1ccc2ccc(OCCCCN3CCN(c4cccc5sccc45)CC3)cc2[nH]1 : what is its Population Healthy Nuclei (%) with Fibroblast?
Result: 64%

Q: Record COc1c(Nc2ccc(S(C)(=O)=O)nc2C)ncnc1OC1CCN(C(=O)OC(C)C)CC1 : what is its Population Healthy Nuclei (%) with Fibroblast?
Result: 58%

Q: Record Nc1nc(CC(=O)Nc2ccc(CCNC[C@H](O)c3ccccc3)cc2)cs1 : what is its Population Healthy Nuclei (%) with Fibroblast?
Result: 75%

Q: Record O=c1nc2[nH]c3ccccc3nc-2c(=O)[nH]1 : what is its Population Healthy Nuclei (%) with Fibroblast?
Result: 60%

====

system: HEK-293T; assay: Multiplex assay against HEK293T; format: toxicity, cell-based; settings: human, 48 h, 10 µM, compound concentration 10 uM, replicate 1
propertyLabel: Total Cell Count
A bare number is all that is needed in reply.

Q: Bench note: what Total Cell Count did CC(F)(F)CN1CCOc2c(nn(-c3ccccc3Cl)c2-c2ccc(Cl)cc2)C1=O show?
Result: 540

Q: Bench note: what Total Cell Count did CN1CCC(C(=O)c2cccc(NC(=O)c3c(F)cc(F)cc3F)n2)CC1 show?
Result: 803

Q: Bench note: what Total Cell Count did COC(c1ccccc1)(c1ccccc1)[C@H](Oc1nc(C)cc(C)n1)C(=O)O show?
Result: 711

Q: Bench note: what Total Cell Count did CC(C)(C)c1ccc(CSc2cnn(C(C)(C)C)c(=O)c2Cl)cc1 show?
Result: 424

Q: Bench note: what Total Cell Count did CN1C[C@H](C(=O)N[C@]2(C)O[C@@]3(O)[C@@H]4CCCN4C(=O)[C@H](Cc4ccccc4)N3C2=O)C[C@@H]2c3cccc4[nH]cc(c34)C[C@H]21.CS(=O)(=O)O [DIHYDROERGOTAMINE MESYLATE] show?
Result: 778

====

test system: HEK-293T; test: Multiplex assay against HEK293T; format: toxicity, cell-based; details: human, 24 h, 10 µM, compound concentration 10 uM, replicate 1
Please provide measured Population Fragmented Nuclei (%) for the entries that follow.
Answer format: numeric, % implied, no suffix.

Q: Bench note: what Population Fragmented Nuclei (%) did COC(c1ccccc1)(c1ccccc1)[C@H](Oc1nc(C)cc(C)n1)C(=O)O [AMBRISENTAN] show?
Result: 10

Q: Bench note: what Population Fragmented Nuclei (%) did CC(C)C[C@H](CO)Nc1nc(S[C@@H](C)c2ccccc2)nc2nc(N)sc12 [AZD-8797] show?
Result: 8

Q: Bench note: what Population Fragmented Nuclei (%) did COc1ccc2[nH]c(I)c(CCNC(C)=O)c2c1 [IODOMELATONIN] show?
Result: 11

Q: Bench note: what Population Fragmented Nuclei (%) did Cc1cc(=O)n(C)c2cc(N3C(=O)CC[C@H](NS(=O)(=O)CC(C)C)[C@H]3c3ccc(Cl)cc3)ccc12 show?
Result: 7

Q: Bench note: what Population Fragmented Nuclei (%) did CCn1c(-c2nc3cc(C(=O)N4CCCC(N)C4)ccc3n2C)cc2ccccc21.Cl (stereo not given) show?
Result: 11

====

tested on: HEK-293T; assay: Multiplex assay against HEK293T; type: toxicity, cell-based; conditions: human, 12 h, 1 µM, compound concentration 1 uM, replicate 1
Non-standard residues stand in square brackets, D forms with d. Residues, ends and D or L forms follow the SMILES beside them.
Please provide measured Population Tubulin-Different-Phenotype (%) for the entries that follow.
Answer format: numeric, % implied, no suffix.

Q: Bench note: what Population Tubulin-Different-Phenotype (%) did COc1c(Nc2ccc(S(C)(=O)=O)nc2C)ncnc1OC1CCN(C(=O)OC(C)C)CC1 show?
Result: 36

Q: Bench note: what Population Tubulin-Different-Phenotype (%) did CC(C)C[C@@H]1NC(=O)[C@@H](C(C)C)NC(=O)[C@@H]2CCCN2C(=O)[C@@H](CC(=O)O)NC(=O)[C@@H](Cc2c[nH]c3ccccc23)NC1=O [BQ-123] (cyclo(L[dW][dD]P[dV])) show?
Result: 32

Q: Bench note: what Population Tubulin-Different-Phenotype (%) did COc1cc2nc(N3CCN(C(=O)c4ccco4)CC3)nc(N)c2cc1OC.Cl [PRAZOSIN HYDROCHLORIDE] show?
Result: 23
